target: hMC4R (Homo sapiens, UniProt P32245); test: cAMP assay (intracellular cAMP accumulation) at hMC4R; type: cell-based; design: expressed in transfected cells; details: Table 2; 50% maximal intracellular cAMP accumulation (N = 4); tested 10^-10 to 10^-5 M
Sequence (P32245 whole entry): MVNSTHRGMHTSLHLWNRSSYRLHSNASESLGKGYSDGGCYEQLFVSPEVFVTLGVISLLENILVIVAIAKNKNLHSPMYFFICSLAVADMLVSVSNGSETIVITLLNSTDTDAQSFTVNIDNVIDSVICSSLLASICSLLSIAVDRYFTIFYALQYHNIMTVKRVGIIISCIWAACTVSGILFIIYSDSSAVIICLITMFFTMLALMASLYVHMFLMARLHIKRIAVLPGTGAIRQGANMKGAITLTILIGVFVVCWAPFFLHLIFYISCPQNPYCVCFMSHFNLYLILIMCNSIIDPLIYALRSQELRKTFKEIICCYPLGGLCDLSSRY
pEC50: −log10 of the molar value.

SUBSTANCE: H-YVMGPFRWDRFG-NH2 [SEQ ID NO. 10]
pEC50: 7.00

====

target: hMC5R (Homo sapiens, UniProt P33032); assay: Competition binding assay with [125I]-NDP-α-MSH, whole HEK293 cells expressing hMC5R; parameters: expressed in transfected cells; host or cells: HEK293; conditions: Table 4; 50% specific binding (N = 4); NB = 0% of 125I-NDP-α-MSH displacement observed at 10 μM; read-out: MC5R IC50
Sequence (P33032 whole entry): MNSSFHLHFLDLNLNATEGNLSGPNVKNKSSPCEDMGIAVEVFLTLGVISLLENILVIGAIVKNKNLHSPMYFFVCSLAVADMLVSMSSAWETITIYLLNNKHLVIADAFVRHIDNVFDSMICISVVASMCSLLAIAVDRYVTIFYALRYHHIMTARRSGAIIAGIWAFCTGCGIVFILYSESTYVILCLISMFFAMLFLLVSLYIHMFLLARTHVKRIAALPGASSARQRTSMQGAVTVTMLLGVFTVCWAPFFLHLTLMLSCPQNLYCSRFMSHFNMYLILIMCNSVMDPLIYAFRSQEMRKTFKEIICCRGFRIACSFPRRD
Reported IC50 values follow for various substances

SUBSTANCE: H-YVLGHFLWDRFG-NH2 [SEQ ID NO. 4]
IC50: 7.3 nM
//
SUBSTANCE: H-YVLGPFLWDRFG-NH2 [SEQ ID NO. 6]
IC50: 1.7 nM
//
SUBSTANCE: H-YVLGPFRWDRFG-NH2 [SEQ ID NO. 2]
IC50: 67 nM
//
SUBSTANCE: H-YVLGPFLFDRFG-NH2 [SEQ ID NO. 7]
IC50: 5.3 nM

====

molecular target: hMC3R (Homo sapiens); experiment: Competition binding assay with [125I]-NDP-α-MSH, whole HEK293 cells expressing hMC3R; design: expressed in transfected cells; host or cells: HEK293; conditions: Table 4; maximal % of 125I-NDP-α-MSH displacement observed at 10 μM
Sequence (P41968 whole entry): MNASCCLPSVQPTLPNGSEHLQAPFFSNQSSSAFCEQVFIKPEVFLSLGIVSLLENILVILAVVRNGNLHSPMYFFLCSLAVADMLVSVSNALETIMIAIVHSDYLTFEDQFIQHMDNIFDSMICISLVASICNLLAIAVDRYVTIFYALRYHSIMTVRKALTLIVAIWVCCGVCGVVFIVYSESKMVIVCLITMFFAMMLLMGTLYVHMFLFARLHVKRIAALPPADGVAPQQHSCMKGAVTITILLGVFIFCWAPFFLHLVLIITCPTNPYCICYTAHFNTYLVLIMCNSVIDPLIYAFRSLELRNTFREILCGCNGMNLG
Reported MC3R % BE (Percent Binding Efficiency) values follow for various substances

SUBSTANCE: H-YVLGPFRFDRFG-NH2 [SEQ ID NO. 3]
READOUT_UNIT: %
MC3R % BE (Percent Binding Efficiency): 33
//
SUBSTANCE: H-YVLGHFLWDRFG-NH2 [SEQ ID NO. 4]
READOUT_UNIT: %
MC3R % BE (Percent Binding Efficiency): 26
//
SUBSTANCE: H-YVLGPFLFDRFG-NH2 [SEQ ID NO. 7]
READOUT_UNIT: %
MC3R % BE (Percent Binding Efficiency): 47
//
SUBSTANCE: H-YVLGPFRWDRFG-NH2 [SEQ ID NO. 2]
READOUT_UNIT: %
MC3R % BE (Percent Binding Efficiency): 100
//
SUBSTANCE: H-YVLGPFLWDRFG-NH2 [SEQ ID NO. 6]
READOUT_UNIT: %
MC3R % BE (Percent Binding Efficiency): 32
//
SUBSTANCE: H-YVLGHFLFDRFG-NH2 [SEQ ID NO. 5]
READOUT_UNIT: %
MC3R % BE (Percent Binding Efficiency): 45

====

Reported MC1R % BE (Percent Binding Efficiency) values follow for various substances
biological target: hMC1R (Homo sapiens, UniProt Q01726); construct: expressed in transfected cells; host or cells: HEK293; assay: Competition binding assay with [125I]-NDP-α-MSH, whole HEK293 cells expressing hMC1R; details: Table 4; maximal % of 125I-NDP-α-MSH displacement observed at 10 μM
Sequence (Q01726 whole entry): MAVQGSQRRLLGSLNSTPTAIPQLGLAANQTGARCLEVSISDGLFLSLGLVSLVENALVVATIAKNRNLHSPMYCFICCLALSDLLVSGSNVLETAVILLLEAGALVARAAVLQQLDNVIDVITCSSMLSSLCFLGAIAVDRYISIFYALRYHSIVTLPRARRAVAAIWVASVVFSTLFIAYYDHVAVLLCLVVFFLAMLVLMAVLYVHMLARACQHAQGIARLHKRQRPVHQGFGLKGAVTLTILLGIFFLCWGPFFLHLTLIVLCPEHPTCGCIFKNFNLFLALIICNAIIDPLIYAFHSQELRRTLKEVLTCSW
VALUE_KIND: MC1R % BE (Percent Binding Efficiency) (%)

SUBSTANCE: H-YVLGHFLWDRFG-NH2 [SEQ ID NO. 4]
REPORTED_VALUE: 100
--
SUBSTANCE: H-YVLGPFRFDRFG-NH2 [SEQ ID NO. 3]
REPORTED_VALUE: 0
--
SUBSTANCE: H-YVLGPFLFDRFG-NH2 [SEQ ID NO. 7]
REPORTED_VALUE: 32
--
SUBSTANCE: H-YVLGHFLFDRFG-NH2 [SEQ ID NO. 5]
REPORTED_VALUE: 100
